- MEASURED TARGET: WT STING (Homo sapiens, UniProt Q86WV6, H232R)
- Sequence (Q86WV6 140-343 H232R): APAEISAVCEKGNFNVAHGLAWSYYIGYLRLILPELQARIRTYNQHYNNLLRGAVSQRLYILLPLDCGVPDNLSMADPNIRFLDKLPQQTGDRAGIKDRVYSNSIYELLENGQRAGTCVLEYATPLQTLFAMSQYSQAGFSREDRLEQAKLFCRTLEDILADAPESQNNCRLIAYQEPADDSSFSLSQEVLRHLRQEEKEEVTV
- ASSAY DETAILS: Differential scanning fluorimetry (DSF) with WT STING
- Type: binding
- Design: 8xHis (N, cleaved yes); SUMO (N, cleaved yes); made in house; host or cells: E. coli Rosetta-gami B (DE3)
- CONDITIONS USED: thermal shift vs apoprotein; 150 μM CDN; truncated human WT STING 0.1 mg/ml
DSF ΔTm (° C.) WT STING vs 7 °C: less than gives Condition met; not less than gives Condition not met.

In: Does this molecule meet the criterion DSF ΔTm (° C.) WT STING < 7 °C? Nc1ncnc2c1ncn2[C@@H]1C[C@@H]2COP(=O)(S)OC3C(F)[C@H](n4cnc5c(N)ncnc54)O[C@@H]3COP(=O)(S)OC2C1F (single isomer, unassigned) [Compound 102b]
Out: Condition not met

In: Does this molecule meet the criterion DSF ΔTm (° C.) WT STING < 7 °C? Nc1ncnc2c1ncn2[C@@H]1C[C@@H]2COP(=O)(O)O[C@H]3[C@@H](F)[C@H](n4cnc5c(N)ncnc54)O[C@@H]3COP(=O)(S)O[C@H]2[C@H]1F (single isomer, unassigned) [Compound 130b]
Out: Condition not met

In: Does this molecule meet the criterion DSF ΔTm (° C.) WT STING < 7 °C? Nc1nc2c(ncn2[C@@H]2O[C@@H]3COP(=O)(O)OC4C(O)[C@H](n5cnc6c(N)ncnc65)C[C@@H]4COP(=O)(O)OC3C2O)c(=O)[nH]1 (some centres unmarked) [Compound 112]
Out: Condition met

In: Does this molecule meet the criterion DSF ΔTm (° C.) WT STING < 7 °C? Nc1nc2c(ncn2[C@@H]2O[C@@H]3COP(=O)(O)O[C@@H]4[C@H](O)[C@@H](COP(=O)(O)O[C@@H]2[C@@H]3O)O[C@H]4n2cnc3c(N)ncnc32)c(=O)[nH]1 [2′2′-cGAMP, reference compound]
Out: Condition not met

---

- MEASURED TARGET: AQ STING (G230A-R293Q) (Homo sapiens, UniProt Q86WV6, G230A/H232R/R293Q)
- Construct: 8xHis (N, cleaved yes); SUMO (N, cleaved yes); made in house; host or cells: E. coli Rosetta-gami B (DE3)
- Sequence (Q86WV6 140-343 G230A/H232R/R293Q): as the sequence (Q86WV6 140-343 H232R) above, with G91A, R154Q counted along it
- ASSAY DETAILS: Differential scanning fluorimetry (DSF) with AQ STING
- Format: binding
- CONDITIONS USED: thermal shift vs apoprotein; 150 μM CDN; truncated human AQ STING 0.1 mg/ml
Exercise: for every item that follows, state its recorded ΔTm at 150 µM.
Answer with a number only, understood to be in °C.

In: Requested field: ΔTm at 150 µM. Item: Nc1nc2c(ncn2[C@H]2CC3OP(=O)(O)OC[C@H]4C[C@@H](n5cnc6c(=O)[nH]c(N)nc65)C(O)C4OP(=O)(O)OC[C@H]3C2)c(=O)[nH]1 (stereo partly drawn)
Out: 4.6

In: Requested field: ΔTm at 150 µM. Item: Nc1nc2c(ncn2[C@@H]2C[C@@H]3COP(=O)(S)O[C@H]4[C@@H](F)[C@H](n5cnc6c(N)ncnc65)O[C@@H]4COP(=O)(S)O[C@H]3C2)c(=O)[nH]1 (single isomer, unassigned) [Compound 129c]
Out: 13.2

In: Requested field: ΔTm at 150 µM. Item: Nc1ncnc2c1ncn2[C@H]1CC2OP(=O)(O)OC[C@H]3C[C@@H](n4cnc5c(N)ncnc54)CC3OP(=O)(O)OC[C@H]2C1 (stereo partly drawn)
Out: 5.1

---

Exercise: for every item that follows, state its recorded log10 EC50.
- Test system: peripheral blood mononuclear cells (PBMC)
- ASSAY DETAILS: Peripheral blood mononuclear cell (PBMC) assay
- Type: cell-based
- CONDITIONS USED: PBMC, interferon-alpha level; 1 h with compounds, washed, 15 hour incubation; average of one to four donors; read-out: PBMC EC50 (μM) IFN-α
Note the log scale: values are log10 of EC50 expressed in µM.

In: Param readout= log10 EC50; system= peripheral blood mononuclear cells (PBMC); entry= Nc1nc2c(ncn2[C@@H]2C[C@@H]3COP(=O)(S)O[C@H]4[C@@H](F)[C@H](n5cnc6c(N)ncnc65)O[C@@H]4COP(=O)(S)O[C@H]3C2)c(=O)[nH]1 (single isomer, unassigned) [Compound 129d] ; returns value.
Out: 1.43

In: Param readout= log10 EC50; system= peripheral blood mononuclear cells (PBMC); entry= Nc1ncnc2c1ncn2[C@@H]1C[C@@H]2COP(=O)(S)O[C@@H]3[C@@H](COP(=O)(S)O[C@H]2[C@H]1F)C[C@@H](n1cnc2c(N)ncnc21)[C@@H]3F (single isomer, unassigned) [Compound 128b] ; returns value.
Out: 1.43

In: Param readout= log10 EC50; system= peripheral blood mononuclear cells (PBMC); entry= Nc1ncnc2c1ncn2[C@H]1CC2OP(=O)(O)OC[C@H]3O[C@@H](n4cnc5c(N)ncnc54)C(F)C3OP(=O)(O)OC[C@H]2C1 (stereo partly shown) ; returns value.
Out: 2.42

In: Param readout= log10 EC50; system= peripheral blood mononuclear cells (PBMC); entry= CC(C)OC(=O)OCOP1(=O)OC[C@H]2O[C@@H](n3cnc4c(N)ncnc43)C(F)C2OP(=O)(OCOC(=O)OC(C)C)OC[C@H]2C[C@@H](n3cnc4c(N)ncnc43)C(F)C2O1 (stereo partly shown) [Compound 143b] ; returns value.
Out: -0.52

In: Param readout= log10 EC50; system= peripheral blood mononuclear cells (PBMC); entry= CC1(C(=O)OCOP2(=O)OC[C@H]3O[C@@H](n4cnc5c(N)ncnc54)[C@H](F)[C@@H]3OP(=O)(OCOC(=O)C3(C)CCCCC3)OC[C@H]3C[C@@H](n4cnc5c(N)ncnc54)[C@H](F)[C@@H]3O2)CCCCC1 (single isomer, unassigned) [Compound 145b] ; returns value.
Out: -2.15

In: Param readout= log10 EC50; system= peripheral blood mononuclear cells (PBMC); entry= CCC(C)(C)C(=O)OCOP1(=O)OC[C@H]2O[C@@H](n3cnc4c(N)ncnc43)[C@H](F)[C@@H]2OP(=O)(OCOC(=O)C(C)(C)CC)OC[C@H]2C[C@@H](n3cnc4c(N)ncnc43)[C@H](F)[C@@H]2O1 (single isomer, unassigned) [Compound 144c] ; returns value.
Out: -2.40

In: Param readout= log10 EC50; system= peripheral blood mononuclear cells (PBMC); entry= Nc1ncnc2c1ncn2[C@@H]1C[C@@H]2COP(=O)(O)OC3C[C@H](n4cnc5c(N)ncnc54)O[C@@H]3COP(=O)(O)OC2C1F (stereo partly shown) ; returns value.
Out: 2.46

In: Param readout= log10 EC50; system= peripheral blood mononuclear cells (PBMC); entry= CCCCCCCC(=O)OCOP1(=O)OC[C@H]2O[C@@H](n3cnc4c(N)ncnc43)[C@H](F)[C@@H]2OP(=O)(OCOC(=O)CCCCCCC)OC[C@H]2C[C@@H](n3cnc4c(N)ncnc43)[C@H](F)[C@@H]2O1 (single isomer, unassigned) [Compound 146a] ; returns value.
Out: -1.40

In: Param readout= log10 EC50; system= peripheral blood mononuclear cells (PBMC); entry= Nc1ncnc2c1ncn2[C@@H]1C[C@@H]2COP(=O)(O)OC3C(F)[C@H](n4cnc5c(N)ncnc54)C[C@@H]3COP(=O)(O)OC2C1F (stereo partly shown) ; returns value.
Out: 2.40

In: Param readout= log10 EC50; system= peripheral blood mononuclear cells (PBMC); entry= Nc1ncnc2c1ncn2[C@@H]1C[C@@H]2COP(=O)(O)OC3C(F)[C@H](n4cnc5c(N)ncnc54)O[C@@H]3COP(=O)(O)OC2C1F (stereo partly shown) ; returns value.
Out: 1.81

---

- System: peripheral blood mononuclear cells (PBMC)
- ASSAY DETAILS: Peripheral blood mononuclear cell (PBMC) assay
- Format: cell-based
- CONDITIONS USED: PBMC, interferon-gamma level; 1 h with compounds, washed, 15 hour incubation; average of one to four donors; read-out: PBMC EC50 (μM) IFN-γ
READOUT NAME: EC50 (µM)
Answer with a number only, understood to be in µM.

In: Requested field: EC50. Item: CCC(C)(C)C(=O)OCOP1(=O)OC[C@H]2O[C@@H](n3cnc4c(N)ncnc43)[C@H](F)[C@@H]2OP(=O)(OCOC(=O)C(C)(C)CC)OC[C@H]2C[C@@H](n3cnc4c(N)ncnc43)[C@H](F)[C@@H]2O1 (single isomer, unassigned) [Compound 144c]
Out: 0.003

In: Requested field: EC50. Item: CC(C)(C)C(=O)OCOP1(=O)OC[C@H]2O[C@@H](n3cnc4c(N)ncnc43)CC2OP(=O)(OCOC(=O)C(C)(C)C)OC[C@H]2C[C@@H](n3cnc4c(N)ncnc43)C(F)C2O1 (some centres unmarked) [Compound 139a]
Out: 0.1

In: Requested field: EC50. Item: Nc1ncnc2c1ncn2[C@H]1CC2OP(=O)(O)OC[C@H]3O[C@@H](n4cnc5c(N)ncnc54)C(F)C3OP(=O)(O)OC[C@H]2C1 (some centres unmarked)
Out: 169

In: Requested field: EC50. Item: CC1(C(=O)OCOP2(=O)OC[C@H]3O[C@@H](n4cnc5c(N)ncnc54)C(F)C3OP(=O)(OCOC(=O)C3(C)CCCCC3)OC[C@H]3C[C@@H](n4cnc5c(N)ncnc54)C(F)C3O2)CCCCC1 (some centres unmarked) [Compound 145c]
Out: 0.01

In: Requested field: EC50. Item: Nc1ncnc2c1ncn2[C@@H]1C[C@@H]2COP(=O)(O)OC3C(F)[C@H](n4cnc5c(N)ncnc54)C[C@@H]3COP(=O)(O)OC2C1F (some centres unmarked)
Out: 200

Cited source: patent US11766447B2
